Target: HLA-B*15:01
Test: IEDB peptide-MHC binding, purified MHC/competitive/fluorescence; filed as Kd, often an IC50 or EC50 that approximates it; bounds were set here for any values at or beyond the usual limits of such assays
Settings: source organism: Orthohantavirus andesense
measured.parameter: Kd

Req: Supply measured Kd of RMMATKDSF in your reply.
Resp: 44.1 nM

###

For each of the sequences below, state its pKd.
Molecular target: HLA-A*68:02
Test: IEDB peptide-MHC binding, purified MHC/competitive/radioactivity; filed as Kd, often an IC50 or EC50 that approximates it; bounds were set here for any values at or beyond the usual limits of such assays
Conditions: source organism: Trypanosoma cruzi
Give bare numbers, as −log10 of the molar value.

residues=ELLRPTTLV experimental_system=HLA-A*68:02 result_number=7.06

// switching to the query sequence
Req: Supply measured pKd of FANYGFTLA in your reply.
Resp: 5.79

###

Target: HLA-B*58:01
Assay: IEDB peptide-MHC binding, purified MHC/direct/fluorescence; filed as Kd, often an IC50 or EC50 that approximates it; bounds were set here for any values at or beyond the usual limits of such assays
Settings: source organism: Mammarenavirus lassaense
pKd: −log10 of the molar value.
measured.parameter: pKd

Req: Supply measured pKd of VPHVIEEVM in your reply.
Resp: ≤ 4.70

###

Biological target: HLA-A*26:02
Test: IEDB peptide-MHC binding, purified MHC/direct/fluorescence; filed as Kd, often an IC50 or EC50 that approximates it; bounds were set here for any values at or beyond the usual limits of such assays
Details: source organism: Vibrio cholerae V51
measured.parameter: Kd (µM)
Answers are plain numbers, in µM.

Req: Enter recorded Kd with HLA-A*26:02 for AIARGFHFY here.
Resp: 0.107

###

Target: HLA-A*02:03
Experiment: IEDB peptide-MHC binding, purified MHC/competitive/fluorescence; filed as Kd, often an IC50 or EC50 that approximates it; bounds were set here for any values at or beyond the usual limits of such assays
Conditions: source organism: Influenza A virus (A/swine/Italy/1521/98(H1N2))
measured.parameter: Kd

Req: Enter recorded Kd with HLA-A*02:03 for WIPKRNRSI here.
Resp: ≥ 20 µM

###

Target: HLA-A*69:01
Assay: IEDB peptide-MHC binding, purified MHC/direct/fluorescence; filed as Kd, often an IC50 or EC50 that approximates it; bounds were set here for any values at or beyond the usual limits of such assays
Details: source organism: Influenza A virus (A/Wisconsin/4755/1994(H1N1))
pKd: −log10 of the molar value.
measured.parameter: pKd

Req: Supply measured pKd of ITKEKKEEL in your reply.
Resp: ≤ 4.70

###

Target: HLA-A*11:01
Assay: IEDB peptide-MHC binding, purified MHC/competitive/fluorescence; filed as Kd, often an IC50 or EC50 that approximates it; bounds were set here for any values at or beyond the usual limits of such assays
Details: source organism: Vibrio antiquarius
pKd: −log10 of the molar value.
measured.parameter: pKd

Req: Supply measured pKd of LVAPHMAMM in your reply.
Resp: ≤ 4.70

###

Molecular target: HLA-A*02:01
Assay: IEDB peptide-MHC binding, purified MHC/direct/fluorescence; filed as Kd, often an IC50 or EC50 that approximates it; bounds were set here for any values at or beyond the usual limits of such assays
Details: source organism: Vibrio vulnificus
measured.parameter: Kd (nM)
Give bare numbers, in nM.

Req: Enter recorded Kd with HLA-A*02:01 for KLTSYSAGL here.
Resp: 21

Hello, the source for this data is the Immune Epitope Database (IEDB), in case you need it.
